Molecular target: endogenous cellular BACE2 (Rattus norvegicus, UniProt Q6IE75)
Construct: endogenous cellular BACE2 in the Ins1e rat cell line; endogenous in cells
Experiment: Assay for BACE inhibition by measuring cellular TMEM27 cleavage
Settings: INS-TMEM27 (INS1e-derived) cells, shed human TMEM27 in supernatant by ELISA
pIC50: −log10 of the molar value. Counter-ions that a name gives are not always drawn.
measurement.label: pIC50

C[C@]1(c2cc(NC(=O)c3nsc(Cl)n3)ccc2F)N=C(N)COCC1(F)F [Example 73, formate]	5.19
CC1(C)OCC(N)=N[C@](C)(c2cc(NC(=O)c3ccc(C#N)cn3)ccc2F)C1(F)F	7.52

a. Cc1conc1C(=O)Nc1ccc(F)c([C@@]2(C)N=C(N)COCC2(F)F)c1
b. C[C@]1(c2cc(NC(=O)c3cnc(C(F)F)cn3)ccc2F)N=C(N)COCC1(F)F [Example 105, formate]
c. CC1(C)C[C@@](C)(c2cc(NC(=O)c3ccc(OC(F)F)cn3)ccc2F)N=C(N)CO1
d. NC1=N[C@@]2(c3cccc(NC(=O)c4ccc(OCC(F)(F)F)cn4)c3)C[C@H]2COC1 (racemic)
Reorder: pIC50, max to min. Please reply with the labels ordered as requested. Many thanks.
c, a, b, d
(c: 8.70, a: 7.02, b: 6.42, d: 5.05)

---

Test system: Aβ40
Experiment: Cellular Aβ-lowering assay
Assay type: cell-based
Conditions: HEK293 cells stably expressing human APP695, Aβ40 in supernatant by ELISA after 18-20 hrs; read-out: Cellular assay Abeta40 IC50
pIC50: −log10 of the molar value. Structures can show the parent of a compound that is named as a salt.
measurement.label: pIC50

# count of solved cases: 2
CC[C@]1(c2cc(NC(=O)c3ncc(F)cc3C)ccc2F)N=C(N)COCC1(F)F	7.48
C[C@]1(c2cc(NC(=O)c3ccc(C#N)cn3)ccc2F)N=C(N)COCC1(F)F [Example 30, formate]	8.68

I. CC[C@]1(c2cc(NC(=O)c3nc[nH]c3C)ccc2F)N=C(N)COCC1(F)F
II. C[C@@]1(c2cc(NC(=O)c3ncc(Cl)cc3Cl)ccc2F)CCOCC(N)=N1
Of I versus II , which is the one with smaller reported pIC50? I would appreciate it if you answered with the label of your choice.
I

---

Biological target: endogenous cellular BACE2 (Rattus norvegicus, UniProt Q6IE75)
Construct: endogenous cellular BACE2 in the Ins1e rat cell line; endogenous in cells
Sequence (Q6IE75 63-514): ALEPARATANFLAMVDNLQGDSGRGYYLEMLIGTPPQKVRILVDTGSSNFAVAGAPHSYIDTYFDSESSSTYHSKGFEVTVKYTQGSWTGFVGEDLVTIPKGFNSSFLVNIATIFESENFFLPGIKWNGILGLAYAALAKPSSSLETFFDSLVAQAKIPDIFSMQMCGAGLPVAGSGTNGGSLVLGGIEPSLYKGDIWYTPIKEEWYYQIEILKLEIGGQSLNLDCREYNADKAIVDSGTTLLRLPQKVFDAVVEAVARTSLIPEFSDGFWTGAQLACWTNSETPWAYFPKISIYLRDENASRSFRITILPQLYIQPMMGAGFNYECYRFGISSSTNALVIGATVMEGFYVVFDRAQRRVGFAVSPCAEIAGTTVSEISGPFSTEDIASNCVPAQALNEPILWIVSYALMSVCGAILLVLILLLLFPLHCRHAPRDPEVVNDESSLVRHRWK
Test: Assay for BACE inhibition by measuring cellular TMEM27 cleavage
Conditions: INS-TMEM27 (INS1e-derived) cells, shed human TMEM27 in supernatant by ELISA
pIC50: −log10 of the molar value. Structures can show the parent of a compound that is named as a salt.
measurement.label: pIC50

Worked examples follow.
CC[C@]1(c2cc(NC(=O)c3ncc(Cl)cn3)ccc2F)N=C(N)COCC1(F)F	7.25
C[C@]1(c2cc(NC(=O)c3cc(Cl)c(Cl)s3)ccc2F)N=C(N)COCC1(F)F [Example 72, formate]	5.61
Cc1ocnc1C(=O)Nc1ccc(F)c([C@@]2(C)N=C(N)COCC2(F)F)c1	6.88
C[C@@]1(c2cc(NC(=O)C3CC3(F)F)ccc2F)CCOCC(N)=N1 (some centres unmarked)	6.85
COc1cnc(C(=O)Nc2ccc(F)c([C@@]3(C)N=C(N)COCC3(F)F)c2)cn1 [Example 109, formate]	6.84

I. CC1(C)C[C@@](C)(c2cc(NC(=O)c3ccc(Cl)cn3)ccc2F)N=C(N)CO1
II. CC1(C)C[C@@](C)(c2cc(NC(=O)C3(C(F)(F)F)CC3)ccc2F)N=C(N)CO1
Param metric = pIC50; output whichever of I , II has the minimum value. Give the chosen item's label as your response.
II

---

Target: endogenous cellular BACE2 (Rattus norvegicus)
Construct: endogenous cellular BACE2 in the Ins1e rat cell line; endogenous in cells
Assay: Assay for BACE inhibition by measuring cellular TMEM27 cleavage
Conditions: INS-TMEM27 (INS1e-derived) cells, shed human TMEM27 in supernatant by ELISA
Where a name gives a salt, the structure may show the parent alone.
measurement.label: IC50 (nM)

P. CC[C@]1(c2cc(NC(=O)c3ccc(C#N)cn3)ccc2F)N=C(N)COCC1(F)F [Example 79]
Q. CC1(C)OCC(N)=N[C@](C)(c2cc(NC(=O)c3ccc(Cl)cn3)c(F)cc2F)C1(F)F [Example 118]
R. CC[C@]1(c2cc(NC(=O)c3nn(C(F)F)cc3Cl)ccc2F)N=C(N)COCC1(F)F [Example 116]
Arrange items by their IC50 values in increasing order. # output: labels, in the requested order
P, R, Q
(P: 67.1 nM, R: 189 nM, Q: 14800 nM)

I. C[C@]1(c2cc(NC3CCCC3)ccc2F)N=C(N)COC[C@@H]1F [Example 65]
II. C[C@@]1(c2cc(NC(=O)c3ccc(OCC(F)(F)F)cn3)ccc2F)CCOCC(N)=N1 [Example 12]
III. CC(C)Oc1ccc(C(=O)Nc2ccc(F)c([C@@]3(C)N=C(N)COCC3(F)F)c2)nc1 [Example 67, formate]
IV. C[C@]1(c2cc(NC(=O)c3ncc(Cl)cc3Cl)ccc2F)N=C(N)COCC1(F)F [Example 39, formate]
Rank descending by IC50. // respond by listing labels in the order requested
III, II, I, IV

A. C[C@@]1(c2cc(NC(=O)c3ccccn3)ccc2F)CCOCC(N)=N1 [Example 7]
B. CCn1cc(Cl)c(C(=O)Nc2ccc(F)c([C@@]3(CC)N=C(N)COCC3(F)F)c2)n1 [Example 91]
C. CC1(C)OCCC(C)(c2cc(NC(=O)c3ccc(F)cn3)ccc2F)N=C1N (centres unmarked) [Example 28]
D. CC1(C)C[C@@](C)(c2cc(NC(=O)CC(F)(F)F)ccc2F)N=C(N)CO1 [Example 22]
Please rank these compounds by IC50 in descending order. # answer = labels listed in requested order
B, C, D, A

---

Biological target: endogenous cellular BACE2 (Rattus norvegicus, UniProt Q6IE75)
Construct: endogenous cellular BACE2 in the Ins1e rat cell line; endogenous in cells
Experiment: Assay for BACE inhibition by measuring cellular TMEM27 cleavage
Settings: INS-TMEM27 (INS1e-derived) cells, shed human TMEM27 in supernatant by ELISA
pIC50: −log10 of the molar value. Structures can show the parent of a compound that is named as a salt.
measurement.label: pIC50

Below: 2 compounds and their reported pIC50.
NC1=N[C@@]2(c3cccc(NC(=O)c4ccc(Cl)cn4)c3)C[C@H]2COC1 (racemic)	6.61
C[C@]1(c2cc(NC(=O)c3ccc(Cl)cn3)ccc2F)N=C(N)COC[C@@H]1F	9.00

1. C[C@@]1(c2cc(NC(=O)c3ccc(Cl)cn3)ccc2F)CCOCC(N)=N1 [Example 5, formate]
2. C[C@]1(c2cc(NC(=O)c3n[nH]cc3Cl)ccc2F)N=C(N)COCC1(F)F
When their pIC50 values are compared, which is larger, 1 or 2 ? Please identify the chosen entry by its label.
1
(1: 9.05, 2: 6.53)

---

Tested on: Aβ40
Assay: Cellular Aβ-lowering assay
Assay type: cell-based
Settings: HEK293 cells stably expressing human APP695, Aβ40 in supernatant by ELISA after 18-20 hrs; read-out: Cellular assay Abeta40 IC50
Structures can show the parent of a compound that is named as a salt.
measurement.label: IC50 (nM)

Consider the reported IC50 for these compounds:
CCOCc1ccc(C(=O)Nc2ccc(F)c([C@@]3(C)N=C(N)COCC3(F)F)c2)nc1 [Example 57, formate]	14
CC[C@]1(c2cc(NC(=O)c3ncoc3C)ccc2F)N=C(N)COCC1(F)F	1120

P. CC[C@@]1(c2cc(NC(=O)c3ncc(Cl)cc3Cl)ccc2F)CCOCC(N)=N1
Q. CC1(C)C[C@@](C)(c2cc(NC(=O)c3ccc(Cl)cn3)ccc2F)N=C(N)CO1
Larger number for IC50: P , or Q ? Mark your answer with the label of the selected entry.
P
